- System: SNB-75 CNS
- assaySummary: NCI tumour cell line growth inhibition, 48 h

[
  {
    "compound": "O=[N+]([O-])c1ccc(CS(=O)Cc2ccccc2)cc1 (stereo unspecified)",
    "TGI": "> 100 µM"
  },
  {
    "compound": "CCOC(=O)c1cnn(-c2ccnc3c(C(F)(F)F)cccc23)c1N",
    "TGI": "> 100 µM"
  },
  {
    "compound": "CC1OC(c2ccccc2)=CC(OCc2ccccc2)[C@H]1OCc1ccccc1 (stereo partly specified)",
    "TGI": "> 10 µM"
  },
  {
    "compound": "Clc1ccc2nc(Oc3ccccc3)cnc2c1",
    "TGI": "> 100 µM"
  },
  {
    "compound": "CSCC[C@H]1C(=O)N=C(N)N1C(=O)OCc1ccccc1",
    "TGI": "> 100 µM"
  },
  {
    "compound": "CSc1c(C(=O)Nc2ccc(Cl)cc2)c(N)[nH]c(=O)c1C#N",
    "TGI": "> 100 µM"
  }
]

* * *

Here the recorded TGI is given for each entry.
- Tested on: HCC-2998 colon
- assaySummary: NCI tumour cell line growth inhibition, 48 h
property: TGI

[
  {
    "compound": "CCC1CN2CCc3cc(OC)c(OC)cc3C2CC1CC1c2cc(OC)c(OC)cc2CCN1C(=O)CNC(=O)OC(C)(C)C (stereo not given)",
    "testValue": "12.3 µM"
  },
  {
    "compound": "CCN1C(=O)C(=Cc2ccc(-c3ccccc3)cc2)C(=O)N(CC)C1=S",
    "testValue": "> 100 µM"
  },
  {
    "compound": "COc1cc2c(c(OC)c1OC)C(=O)[C@H]1OC(=O)N[C@@H]21",
    "testValue": "> 100 µM"
  },
  {
    "compound": "CCOC(=O)N1CCN(C(=O)Nc2cccc3ccccc23)CC1",
    "testValue": "> 10 µM"
  },
  {
    "compound": "N=c1oc2ccc(Cl)cc2cc1C(=O)Nc1ccccc1",
    "testValue": "> 100 µM"
  },
  {
    "compound": "Fc1ccc(Nc2nc(NCCNc3ccnc4cc(Cl)ccc34)nc(N3CCOCC3)n2)cc1",
    "testValue": "3.95 µM"
  },
  {
    "compound": "CCOC(=O)c1cnn(-c2ccnc3c(C(F)(F)F)cccc23)c1N",
    "testValue": "> 100 µM"
  },
  {
    "compound": "COc1ccc(C2NC3=C(CCCC3)C3(C#N)C(=O)N=C(N)C23C#N)cc1 (stereo not given)",
    "testValue": "> 100 µM"
  },
  {
    "compound": "O=C(Nc1ccc([N+](=O)[O-])cc1)C(=O)C(C(=O)c1ccccc1F)C1OC(=O)c2ccccc21 (stereo not given)",
    "testValue": "41.4 µM"
  },
  {
    "compound": "CC(=O)OC1C2(CC3N4C(=O)C5(CO)SSC4(CC31O)C(=O)N5C)OC(C)C(C)(C)C2=O (stereo not given)",
    "testValue": "0.0538 µM"
  },
  {
    "compound": "CC(=O)Nc1ccc(N2C(=O)/C(=C\\c3cccc(Oc4ccccc4)c3)SC2c2ccccc2)cc1 (stereo not given)",
    "testValue": "> 100 µM"
  },
  {
    "compound": "C=C(N=[N+]=[N-])c1cn(C2CC(O)C(CO)O2)c(=O)[nH]c1=O (stereo not given)",
    "testValue": "> 100 µM"
  },
  {
    "compound": "CC(=O)C1=C([O-])C(C)OC1=O.CC(=O)C1=C([O-])C(C)OC1=O.[NH-]C1CCCC[C@H]1[NH-].[Pt+4] (stereo not given)",
    "testValue": "> 100 µM"
  },
  {
    "compound": "Clc1ncnc2c1nc(C#Cc1ccccc1)n2Cc1ccccc1",
    "testValue": "27 µM"
  },
  {
    "compound": "COc1ccc(NCC(=O)Nn2c(C)nc3ccc(S(=O)(=O)Nc4ccc(OC)cc4)cc3c2=O)cc1",
    "testValue": "> 100 µM"
  }
]

* * *

- Tested on: MALME-3M melanoma
- assaySummary: NCI tumour cell line growth inhibition, 48 h
Here the recorded TGI is given for each entry.

[
  {
    "compound": "CSc1nc(-c2ccccc2)c2c(n1)-c1ccccc1CC2",
    "TGI": "> 100 µM"
  },
  {
    "compound": "O=C(O)c1c[nH]cc1C(=O)O",
    "TGI": "> 100 µM"
  },
  {
    "compound": "C/C(=N\\NC(N)=O)C(CN(C)C)C(c1ccccc1)c1c(O)c2ccccc2oc1=O (centres undefined)",
    "TGI": "> 100 µM"
  },
  {
    "compound": "CC1=CCS(=O)(=O)C1C(O)C1=C(C)CCCC1(C)C (centres undefined)",
    "TGI": "> 100 µM"
  },
  {
    "compound": "CC1CC[C@@]2(OC1)OC1C[C@H]3[C@@H]4CC[C@H]5CC(OC6OC(CO)C(OC7OC(CO)C(O)C(O)C7O)C(O)C6O)CCC5(C)[C@H]4CCC3(C)C1[C@@H]2C (some centres undefined)",
    "TGI": "15.7 µM"
  },
  {
    "compound": "COc1ccc(NCC(=O)Nn2c(C)nc3ccc(S(=O)(=O)Nc4ccc(OC)cc4)cc3c2=O)cc1",
    "TGI": "> 100 µM"
  },
  {
    "compound": "N=c1oc2ccc(Cl)cc2cc1C(=O)Nc1ccccc1",
    "TGI": "> 100 µM"
  },
  {
    "compound": "Cc1ncc([N+](=O)[O-])n1CCNC(=O)CCCn1cnc([N+](=O)[O-])n1",
    "TGI": "> 100 µM"
  },
  {
    "compound": "COc1ccc(/C=C2\\CCCC3=C2NC(C)=NC3c2ccc(OC)c(OC)c2)cc1OC (centres undefined)",
    "TGI": "> 100 µM"
  },
  {
    "compound": "Cn1c(=O)nc2n(-c3ccc(Cl)cc3Cl)c3ccccc3nc-2c1=O",
    "TGI": "3.26 µM"
  },
  {
    "compound": "COc1ccc(-c2ccc(/C=N/n3c(COc4ccc(Cl)cc4)n[nH]c3=S)o2)c([N+](=O)[O-])c1",
    "TGI": "37 µM"
  },
  {
    "compound": "CCc1c[nH]c2ncnc(N3CC[C@@](N)(CNC(=O)c4ccc(F)cc4F)C3)c12",
    "TGI": "> 91.2 µM"
  },
  {
    "compound": "COC(=O)c1cc(-c2c[nH]cc2C(=O)OCc2ccccc2)cn1S(=O)(=O)c1ccc(C)cc1",
    "TGI": "> 100 µM"
  },
  {
    "compound": "CCCCCCCCCCCC1N=C(N)NC(CCCO)=C1C(=O)OC (centres undefined)",
    "TGI": "> 62.2 µM"
  },
  {
    "compound": "COC1OC(COC(=O)NCCCCC(=O)C(F)(F)F)C(O)C(O)C1O (centres undefined)",
    "TGI": "> 100 µM"
  },
  {
    "compound": "C=C(C)[C@@H]1CC[C@@]2(C)[C@H]1[C@H]1CCC3[C@@]4(C)CC[C@H](O)C(C)(C)[C@@H]4CC[C@@]3(C)[C@]1(C)C[C@@H]2O (some centres undefined)",
    "TGI": "> 100 µM"
  },
  {
    "compound": "CN(C)C(=C1c2cc([N+](=O)[O-])ccc2-c2ccc([N+](=O)[O-])cc21)N(C)C",
    "TGI": "> 100 µM"
  },
  {
    "compound": "CCOC(=O)/C(C#N)=C1\\N[C@H](C(=O)OCC)CO1",
    "TGI": "> 100 µM"
  },
  {
    "compound": "Cc1ccc(C(=O)C#Cc2cn(C3CC(O)C(CO)O3)c(=O)[nH]c2=O)cc1 (centres undefined)",
    "TGI": "29.1 µM"
  },
  {
    "compound": "NCc1ccc(-n2c(-c3nonc3N)nc3cnccc32)cc1",
    "TGI": "> 25 µM"
  },
  {
    "compound": "COC1CC(n2cnc3c(N)ncnc32)OC1CO (centres undefined)",
    "TGI": "> 100 µM"
  },
  {
    "compound": "Cc1ccc(-c2n[nH]c(=O)[nH]2)cc1",
    "TGI": "> 100 µM"
  },
  {
    "compound": "C=C[C@]1(C)C=C2C(=O)[C@@]3(O)OC[C@@]4(CCCC(C)(C)C43O)C2(O)C(O)C1 (some centres undefined)",
    "TGI": "3.02 µM"
  },
  {
    "compound": "CCOC(=O)CN1CCSC1=NC#N",
    "TGI": "> 100 µM"
  },
  {
    "compound": "CCN1C(=O)N(CC)C2C1NN=c1s/c(=C3\\C(=O)N(C)c4ccccc43)c(=O)n12 (centres undefined)",
    "TGI": "> 100 µM"
  },
  {
    "compound": "O=C1CC2C(=O)N(Cc3ccccc3)C1C(S(=O)(=O)c1ccccc1)C2S(=O)(=O)c1ccccc1 (centres undefined)",
    "TGI": "3.87 µM"
  },
  {
    "compound": "Cn1cc(-c2ccc(CNc3cc(-c4cnc5cc(OCCCN6CCCC6)ccn45)ncn3)cc2)cn1",
    "TGI": "2.94 µM"
  },
  {
    "compound": "COC(=O)[C@@]12OC[C@]34C([C@@H](O)C1O)[C@@]1(C)CC(=O)C(O)=C(C)C1C[C@H]3OC(=O)[C@H](OC(=O)CC(C)C(F)(F)F)[C@H]42 (some centres undefined)",
    "TGI": "0.0438 µM"
  },
  {
    "compound": "O=C1C(=O)N(C2C3CC4CC(C3)CC2C4)C(=O)C(=O)C1c1nc2ccccc2o1 (centres undefined)",
    "TGI": "> 100 µM"
  }
]
